system: HCT-116 colon; experiment: NCI-60 one-dose screen, 48 h; conditions: 10 µM unless noted
About 83,000 compounds went through this panel and 20% of them were active in at least one assay; those are over-represented in the sample as a whole. Calls of active or inactive are those of the source. The calls were made as follows: active = growth percent below 10; inactive = the rest.
Assign a class; possible classes are active, inactive

[
  {
    "compound": "Nc1ccc(Cl)cc1",
    "assignedCategory": "inactive"
  },
  {
    "compound": "Cc1c2cc(Cl)c3ccccc3c2c[n+]2ccccc12",
    "assignedCategory": "inactive"
  },
  {
    "compound": "CC(=O)O[C@H]1CC[C@]2(C)[C@H]3CC[C@]4(C)[C@@H](OC(C)=O)CC[C@H]4[C@@H]3[C@@H](C)[C@]2(O)C1",
    "assignedCategory": "inactive"
  }
]

Query: Record request — test call for CSc1nc(Cl)cc(N2CC2)n1
Result: inactive

Query: Proceed to COC(=O)[C@@]1(C)CC[C@]2(C)CC[C@]3(C)C4=CC=C5C(=CC(=O)C(O)=C5C)[C@]4(C)CC[C@@]3(C)[C@@H]2C1
Result: active

Query: Same question, COc1ccc(C2=CC(c3ccc(OC)c(OC)c3)c3c(c4ccccc4oc3=O)O2)cc1OC (stereo not drawn) this time
Result: inactive

Query: Then CC[C@H](C)[C@H](NC(=O)C12C3C4C1C1C2C3C41NC(C)=O)C(=O)N(C)[C@H](C[C@@H](OC(C)=O)c1nc(C(=O)N[C@@H](Cc2ccccc2)C[C@H](C)C(=O)OC)cs1)C(C)C (stereo partly drawn) ?
Result: active

Query: Check COC(=O)[C@@H](C[C@H](Cc1ccccc1)NC(=O)c1csc([C@@H](C[C@H](C(C)C)N(C)C(=O)[C@@H](NC(=O)[C@H]2CCCCN2C)C(C)C)OC(C)=O)n1)NC(=O)OCc1ccccc1 too.
Result: active

---

test system: COLO 205 colon; assay: NCI-60 one-dose screen, 48 h; conditions: 10 µM unless noted
About 83,000 compounds went through this panel and 20% of them were active in at least one assay; those are over-represented in the sample as a whole. The source made the active and inactive calls. How the source made its calls: active means growth percent below 10; inactive means the rest.
// classify into TRUE for active, FALSE for inactive

Solved cases below.
[
  {
    "compound": "O=C1OCC2=C1C(c1ccccc1)c1cc3c(cc1N2)OCO3 (stereo not given)",
    "assignedCategory": "TRUE"
  },
  {
    "compound": "O=[N+]([O-])CC(O)C(Cl)(Cl)Cl (stereo not given)",
    "assignedCategory": "FALSE"
  },
  {
    "compound": "COc1cc(/C=C/[N+](=O)[O-])c([N+](=O)[O-])cc1OC",
    "assignedCategory": "TRUE"
  },
  {
    "compound": "CC(C)(NC(=O)O[C@@H]1CN2CCC1CC2)c1csc(-c2ccc(F)cc2)n1",
    "assignedCategory": "FALSE"
  },
  {
    "compound": "Cc1ccc(C(=O)NCCCOc2ccc(N)cc2Cl)cc1S(=O)(=O)F",
    "assignedCategory": "FALSE"
  },
  {
    "compound": "C#C[C@]1(OC(=O)CCCCCC)CC[C@H]2[C@@H]3CCC4=CC(=O)CC[C@@H]4[C@H]3CC[C@@]21C",
    "assignedCategory": "FALSE"
  },
  {
    "compound": "CCN(CC)CCOC(=O)C(OC(C)C)(c1ccccc1)c1ccccc1",
    "assignedCategory": "FALSE"
  },
  {
    "compound": "CC(=O)/C=C/c1ccc2c(c1)OCO2",
    "assignedCategory": "FALSE"
  },
  {
    "compound": "COc1ccc(/C=C\\c2cc(OC)c(OC)c(OC)c2)cc1NS(=O)(=O)c1ccc(Cl)cc1",
    "assignedCategory": "FALSE"
  },
  {
    "compound": "CC(=O)c1ccc(C(=O)NCC2CCC3(CC2)OOC2(CCCCC2)OO3)cc1",
    "assignedCategory": "FALSE"
  }
]

Query: For CC1=C([Te]c2ccc(O)cc2)C(=O)c2ccccc2C1=O , what call appears in the results of this test?
Result: TRUE

Query: COc1cc([C@@H]2c3cc4c(cc3[C@H](OC(C)=O)[C@H]3COC(=O)[C@H]23)OCO4)cc(OC)c1OC ?
Result: TRUE

Query: Same thing, different compound: CCOC(=S)S[C@H]1C[C@@H]2[C@H](CC[C@]3(C)C(=O)CC[C@@H]23)[C@@]2(C)CCC(=O)C=C12
Result: FALSE

Query: Can you check O=C([O][Hg][CH2]C1COCC([CH2][Hg][O]C(=O)c2ccccc2)O1)c1ccccc1 (stereo not given) next?
Result: TRUE

Query: Another compound to check: c1ccc(COc2ccc3[nH]cc(CCN(Cc4ccccc4)Cc4ccccc4)c3c2)cc1
Result: FALSE

Query: Next compound: CC[C@@H]1[C@@H](C)O[C@@](O)([C@@H](C)[C@H](O)[C@H](C)[C@H]2OC(=O)/C=C/C=C/[C@H](C)[C@@H]([C@@H](C)[C@@H](O)[C@H](C)[C@@]3(O)C[C@@H](O[C@H]4C[C@@H](O)[C@H](O)C(C)O4)[C@H](CC)[C@@H](C)O3)OC(=O)/C=C/C=C/[C@@H]2C)C[C@H]1O[C@@H]1C[C@@H](O)[C@H](O)C(C)O1 (stereo not given in full)
Result: TRUE

Query: COc1ccc(/C=C\c2cc(OC)c(OC)c(OC)c2)cc1OCC(=O)Nc1nc2ccc(C(F)(F)F)cc2s1 ?
Result: FALSE

Query: // repeat for COC(=O)[C@@H](C[C@H](Cc1ccccc1)NC(=O)c1csc([C@@H](C[C@H](C(C)C)N(C)C(=O)[C@@H](NC(=O)[C@H]2CCCCN2C)C(C)C)OC(C)=O)n1)NC(=O)OCc1ccccc1 and report
Result: TRUE

Query: // repeat for COc1cc(NC(C)CCCNC2CN3CCC2CC3)c2ncccc2c1 (stereo not given) and report
Result: FALSE

Query: One more compound: Cc1cccc(N2CCN(C(C)C#N)CC2)c1 (stereo not given)
Result: FALSE

Query: Lookup COC(=O)C12CC(NC(=O)c3csc([C@@H](C[C@H](C(C)C)N(C)C(=O)[C@@H](NC(=O)[C@H]4CCCCN4C)C(C)C)OC(C)=O)n3)(C1)C2
Result: TRUE

Query: Then what about the compound Oc1c(O)c(Cl)c(Cl)c(Cl)c1Cl ?
Result: FALSE

Query: Cool, now Cc1c2cc(Cl)c3ccccc3c2c[n+]2ccccc12
Result: FALSE

Query: Can you handle CC[C@H](C)[C@H](NC(=O)[C@H]1CCCCN1C)C(=O)N(C)[C@H](C[C@@H](OC(C)=O)c1nc(C(=O)NC23CC(C(=O)OC)(C2)C3)cs1)C(C)C next?
Result: TRUE

Query: Do the same for CC(=O)OC[C@]1(C)C=C2C(=O)[C@](C)(O)C3(CC3)C(C)=C2[C@H]1OC(=O)N(C)CCN(C)C(=O)OC(C)(C)C please
Result: TRUE

Query: Do the same for CCOP(=O)(Cc1ccc(C#N)cc1)OCC please
Result: FALSE

Query: Also need CC(C)[C@@H]1NC(=O)[C@]2(C)CSC(=N2)c2csc(n2)CNC(=O)C[C@@H](/C=C/CCS)OC1=O , thanks.
Result: TRUE

Query: Would you mind doing O=C(CCCC1CCCCC1)OCC(Cl)(Cl)Cl as well?
Result: FALSE

Query: Ok, now ClCCN(CCCl)c1ccc(-n2cnc3c(Cl)ncnc32)cc1
Result: FALSE

Query: Similarly, COC(=O)[C@@H](C)C[C@H](Cc1cn(C)c2ccccc12)NC(=O)c1csc([C@@H](C[C@H](C(C)C)N(C)C(=O)[C@@H](NC(=O)[C@H]2CCCCN2C)C(C)C)OC(C)=O)n1 ?
Result: TRUE

Query: Try this compound next: CCc1ccccc1[C@@H]1C[C@]2(C)CCO[C@@H]2OO1
Result: FALSE

Query: Same lookup for COC(=O)[C@@H](C)C[C@H](Cc1ccccc1)NC(=O)c1csc([C@@H](C[C@H](C(C)C)N(C)C(=O)[C@H](C)NC(=O)[C@H]2CCCCN2C)OC(C)=O)n1 , please.
Result: TRUE

Recorded values, source PubChem BioAssay (NCI).
